# assay-target: T1, Antigen CD66c (CEACAM6; Sino Biological, Inc.) (UniProt P40199 35-320)
# T1 construct: Bought antigen coated on the ELISA plate; construct not described; also called CD66c antigen; CECACAM6
# T1 sequence (looked up): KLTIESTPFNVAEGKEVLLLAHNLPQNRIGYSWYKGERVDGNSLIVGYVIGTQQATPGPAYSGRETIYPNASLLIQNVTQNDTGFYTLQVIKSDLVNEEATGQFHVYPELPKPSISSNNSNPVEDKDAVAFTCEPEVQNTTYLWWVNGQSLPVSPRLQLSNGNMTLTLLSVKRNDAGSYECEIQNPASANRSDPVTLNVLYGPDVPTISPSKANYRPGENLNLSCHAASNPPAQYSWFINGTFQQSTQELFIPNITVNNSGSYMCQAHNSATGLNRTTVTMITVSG
# experimental-protocol: ELISA, coated CEACAM6 100 ng/well, antibody 1111.11 ng/ml
Please go through the items and note down their OD 450 nm.
// note: answer is a bare numeric in OD

Entry recombinant humanized anti-CD66c antibody Protein ID 3019 (Vk7 + VH10) (antibody, human IgG1, V domains shown, also called hu 3019; #51) VH: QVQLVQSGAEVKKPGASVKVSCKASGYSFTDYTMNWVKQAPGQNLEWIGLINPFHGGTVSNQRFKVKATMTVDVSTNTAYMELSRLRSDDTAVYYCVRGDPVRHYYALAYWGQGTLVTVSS VL: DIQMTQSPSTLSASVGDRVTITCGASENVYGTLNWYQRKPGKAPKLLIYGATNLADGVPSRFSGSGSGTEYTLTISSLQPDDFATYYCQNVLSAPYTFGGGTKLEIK ; OD 450 nm = 3.34

Entry recombinant humanized anti-CD66c antibody Protein ID 2938 (Vk5 + VH7) (antibody, human IgG1, V domains shown, also called hu 2938) VH: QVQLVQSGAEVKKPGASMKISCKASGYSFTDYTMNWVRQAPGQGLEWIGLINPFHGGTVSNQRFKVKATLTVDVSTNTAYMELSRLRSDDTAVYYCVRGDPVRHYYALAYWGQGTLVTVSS VL: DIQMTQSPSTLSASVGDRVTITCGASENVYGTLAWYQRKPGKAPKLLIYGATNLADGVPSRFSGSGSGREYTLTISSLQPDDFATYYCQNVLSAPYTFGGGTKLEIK ; OD 450 nm = 3.16

Entry recombinant humanized anti-CD66c antibody Protein ID 3043 (Vk8 + VH6) (antibody, human IgG1, V domains shown, also called hu 3043; #71) VH: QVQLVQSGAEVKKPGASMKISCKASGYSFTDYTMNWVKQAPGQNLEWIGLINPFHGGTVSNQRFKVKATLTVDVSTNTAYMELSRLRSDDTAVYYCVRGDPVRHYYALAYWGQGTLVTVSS VL: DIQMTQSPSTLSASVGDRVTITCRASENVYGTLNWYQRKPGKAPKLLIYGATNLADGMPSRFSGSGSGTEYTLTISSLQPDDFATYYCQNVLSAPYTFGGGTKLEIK ; OD 450 nm = 2.74

Entry recombinant humanized anti-CD66c antibody Protein ID 3007 (Vk7 + VH6) (antibody, human IgG1, V domains shown, also called hu 3007; #43) VH: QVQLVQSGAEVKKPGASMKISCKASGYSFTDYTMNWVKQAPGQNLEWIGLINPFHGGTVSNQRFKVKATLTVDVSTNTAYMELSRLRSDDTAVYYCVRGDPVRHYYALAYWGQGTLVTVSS VL: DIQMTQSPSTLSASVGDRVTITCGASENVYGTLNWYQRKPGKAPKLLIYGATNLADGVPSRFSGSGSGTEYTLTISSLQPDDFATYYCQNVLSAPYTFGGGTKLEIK ; OD 450 nm = 3.23
